Form field: melting point (one value per entry).

# Item smiles, melting point
records = [
    ("CC1(C)COC(=O)CN1CCCOc1cc2c(Nc3ccc(F)c(Cl)c3)ncnc2cc1OC1CCC1", "214 to 216 °C"),
    ("C[C@@H]1CN(CCCOc2cc3c(Nc4ccc(F)c(Cl)c4)ncnc3cc2OC2CCC2)CC(=O)O1", "185.5 to 189.5 °C"),
    ("C[C@H]1CN(CCCOc2cc3c(Nc4ccc(F)c(Cl)c4)ncnc3cc2OCC2CC2)CC(=O)O1", "160 to 162 °C"),
]

What value of melting point has been recorded for this entry: `CC1(C)CN(CCOc2cc3c(Nc4ccc(F)c(Cl)c4)ncnc3cc2O[C@@H]2CCOC2)CC(=O)O1` 195 to 196 °C

* * *

Form field: melting point (one value per entry).
Give just the number in °C; leave the unit off.

# Item smiles, Units of measure, melting point
data = [
    ("CC1(C)CN(CCOc2cc3ncnc(Nc4ccc(F)c(Cl)c4)c3cc2OC[C@@H]2CCCO2)CC(=O)O1", "°C", 182),
]

Now turn to the next compound.
What value of melting point has been recorded for this entry: `COc1cc2ncnc(Nc3cccc(Br)c3)c2cc1OCCN1CC(=O)O[C@H](C)C1` 193

* * *

System under test: human EGF-R (Homo sapiens)
Construct: packaging line GP+E86)
Sequence (P00533 25-1210): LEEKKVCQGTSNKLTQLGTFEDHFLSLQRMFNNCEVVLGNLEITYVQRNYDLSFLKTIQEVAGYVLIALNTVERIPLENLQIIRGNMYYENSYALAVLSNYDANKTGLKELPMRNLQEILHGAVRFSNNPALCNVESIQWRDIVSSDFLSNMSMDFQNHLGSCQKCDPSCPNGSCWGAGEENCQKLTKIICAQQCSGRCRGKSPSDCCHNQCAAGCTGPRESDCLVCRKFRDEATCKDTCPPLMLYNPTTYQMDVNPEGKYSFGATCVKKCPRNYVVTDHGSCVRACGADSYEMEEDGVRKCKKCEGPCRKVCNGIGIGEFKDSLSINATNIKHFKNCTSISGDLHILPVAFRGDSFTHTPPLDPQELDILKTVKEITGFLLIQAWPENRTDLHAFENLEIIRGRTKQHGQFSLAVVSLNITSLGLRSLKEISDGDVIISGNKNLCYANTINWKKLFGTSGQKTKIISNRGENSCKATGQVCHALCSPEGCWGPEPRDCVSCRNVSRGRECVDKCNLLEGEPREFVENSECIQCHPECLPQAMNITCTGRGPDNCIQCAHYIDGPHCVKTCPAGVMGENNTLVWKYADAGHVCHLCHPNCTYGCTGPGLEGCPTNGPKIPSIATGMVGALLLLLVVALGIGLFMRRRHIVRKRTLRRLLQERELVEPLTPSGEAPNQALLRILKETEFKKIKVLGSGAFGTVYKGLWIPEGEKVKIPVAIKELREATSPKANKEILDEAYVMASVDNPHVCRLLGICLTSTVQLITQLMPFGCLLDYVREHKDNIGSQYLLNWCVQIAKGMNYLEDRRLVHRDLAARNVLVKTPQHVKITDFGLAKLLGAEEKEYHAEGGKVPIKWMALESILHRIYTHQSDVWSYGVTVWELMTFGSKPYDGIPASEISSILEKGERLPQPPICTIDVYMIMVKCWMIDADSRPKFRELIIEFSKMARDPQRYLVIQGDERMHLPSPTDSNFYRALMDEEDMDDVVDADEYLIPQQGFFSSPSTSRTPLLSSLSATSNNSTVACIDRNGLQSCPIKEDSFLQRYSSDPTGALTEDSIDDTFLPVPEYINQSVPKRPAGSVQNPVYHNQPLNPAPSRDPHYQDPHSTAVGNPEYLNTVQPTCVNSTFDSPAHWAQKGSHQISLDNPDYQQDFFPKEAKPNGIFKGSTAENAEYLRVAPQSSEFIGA
Protocol: Inhibition of EGF-dependent proliferation of F/L-HERc cells
Test conditions: F/L-HERc cells (murine IL-3-dependent line expressing human EGF-R), stimulated with EGF 20 ng/ml, 48 hours, Cell Titer 96 AQueous assay
Form field: pIC50 (one value per entry).
The read-out pIC50 is expressed as -log10 of concentration in moles per litre.

// worked examples, pIC50 included
# Compound, System under test, Quantitative readout
records = [
    ("CN(CCOc1cc2ncnc(Nc3ccc(F)c(Cl)c3)c2cc1OC1CCCC1)C1COC(=O)C1 (stereo not shown)", "human EGF-R (Homo sapiens)", 7.44),
    ("CC1(C)CN(CCCOc2cc3c(Nc4ccc(F)c(Cl)c4)ncnc3cc2OC2CCC2)CC(=O)O1", "human EGF-R (Homo sapiens)", 7.54),
    ("CC1(C)CN(CCOc2cc3ncnc(Nc4ccc(F)c(Cl)c4)c3cc2OCC2CCCC2)CC(=O)O1", "human EGF-R (Homo sapiens)", 7.23),
]

Any idea what pIC50 came out for `CC1(C)CN(CCOc2cc3ncnc(Nc4ccc(F)c(Cl)c4)c3cc2OCC2CC2)CC(=O)O1` on human EGF-R (Homo sapiens)? 7.54

* * *

Form field: melting point (one value per entry).

// worked examples, melting point included
# Item smiles, Endpoint label, Result
rows = [
    ("CC1(C)CN(CCCOc2cc3c(Nc4ccc(F)c(Cl)c4)ncnc3cc2OC2CCC2)CC(=O)O1", "melting point", "212 to 214 °C"),
    ("COc1cc2ncnc(Nc3ccc(F)c(Cl)c3)c2cc1OCCN1CC(=O)O[C@H](C)C1", "melting point", "208 °C"),
    ("COc1cc2ncnc(Nc3ccc(F)c(Cl)c3)c2cc1OCCN1CC(=O)OC(C)(C)C1", "melting point", "229 to 232 °C"),
]

Now turn to the next compound.
What value of melting point has been recorded for this entry: `COc1cc2ncnc(Nc3ccc(F)c(Cl)c3)c2cc1OCCN1CC(=O)O[C@@H](C)C1` 212 to 213 °C
